System: H929 cells
Assay: Cell viability assay (H929 10 FBS)
Format: cell-based
Settings: Homo sapiens, NCI-H929, 24 hours, read-out: H929_10FBS IC50
Experimental: Cell Viability Assay (H929 10 FBS) Dispense 10 μL aliquot of prepared H929 cells (1:1 ratio of cells:Trypan Blue (#1450013, Bio-Rad)) onto cell counting slide (#145-0011, Bio-Rad) and obtain cell density and cell viability using cell counter (TC20, Bio-Rad). Remove appropriate volume of resuspended cells from culture flask to accommodate 4000 cells/well @ 10 μL/well. […] Read plates with microplate reader (PheraStar, BMG Labtech) using 384 well luminescence mode.
pIC50: −log10 of the molar value.
quantity_name: pIC50

INSERT INTO assay_data (compound, target_or_system, measured_value) VALUES
  ('CN(C(=O)O[C@H]1/C=C/COC(C)(C)C(=O)NS(=O)(=O)c2ccc3c(c2)N(C[C@@H]2CC[C@H]21)C[C@]1(CO3)OCCc2cc(Cl)ccc21)C1COC1', 'H929 cells', '> 6.00');

## Input Please look up its pIC50: CC1(C)OC/C=C/[C@H](OCCN2CC[C@@H](F)C2)[C@@H]2CC[C@H]2CN2C[C@@]3(CCCc4cc(Cl)ccc43)COc3ccc(cc32)S(=O)(=O)NC1=O
## Output > 6.30

## Input Please look up its pIC50: CC1(C)OC/C=C/[C@H](OC(=O)N2CC3CCC(C2)O3)[C@@H]2CC[C@H]2CN2C[C@@]3(CCCc4cc(Cl)ccc43)COc3ccc(cc32)S(=O)(=O)NC1=O
## Output > 6.00

## Input Please look up its pIC50: CC1(C)OC/C=C/[C@H](OC(=O)NCCc2cccnc2)[C@@H]2CC[C@H]2CN2C[C@@]3(CCCc4cc(Cl)ccc43)COc3ccc(cc32)S(=O)(=O)NC1=O
## Output > 6.30

## Input Please look up its pIC50: CC(=O)NS(=O)(=O)c1ccc2c(c1)N(CC1CCC1)CC1(CCCc3cc(Cl)ccc31)CO2 (stereo not drawn)
## Output < 6.00

## Input Please look up its pIC50: CO[C@@H]1/C=C/CN(C)C(=O)NS(=O)(=O)c2ccc3c(c2)N(C[C@@H]2CC[C@H]21)C[C@@]1(CCCc2cc(Cl)ccc21)CO3
## Output < 6.00

====

Target: MCL-1 (Homo sapiens (Human))
Sequence (Q07820 whole entry): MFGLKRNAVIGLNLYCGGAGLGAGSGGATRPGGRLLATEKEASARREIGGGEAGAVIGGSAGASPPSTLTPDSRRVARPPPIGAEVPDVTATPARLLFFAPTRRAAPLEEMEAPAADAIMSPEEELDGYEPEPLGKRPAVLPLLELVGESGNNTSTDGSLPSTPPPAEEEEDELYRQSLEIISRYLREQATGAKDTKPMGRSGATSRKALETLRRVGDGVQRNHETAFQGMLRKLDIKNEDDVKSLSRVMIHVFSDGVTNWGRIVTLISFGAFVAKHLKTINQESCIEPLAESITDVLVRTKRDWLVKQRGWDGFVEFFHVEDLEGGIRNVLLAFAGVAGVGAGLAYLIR
Experiment: Cell free Mcl-1:Bim affinity assay (fluorescence polarization competition)
Assay type: binding
Conditions: 15 nM MCL-1, 5 nM FITC-Bim, 1 hour at room temperature; class symbols; read-out: BIM_Ki
pKi: −log10 of the molar value.
Here, each record is paired with measured pKi data.

Here is how some compounds turned out for pKi.
INSERT INTO measurements (compound, target_or_system, quantity_name, measured_value) VALUES
  ('COC1CN(C(=O)O[C@H]2/C=C/CN(C)C(C)(C)C(=O)NS(=O)(=O)c3ccc4c(c3)N(C[C@@H]3CC[C@H]32)C[C@@]2(CCCc3cc(Cl)ccc32)CO4)C1 [Example 217]', 'MCL-1 (Homo sapiens (Human))', 'pKi', '> 9.00'),
  ('CC1(C)OC/C=C/[C@H](OCCN2CCCC2)[C@@H]2CC[C@H]2CN2C[C@@]3(CCCc4cc(Cl)ccc43)COc3ccc(cc32)S(=O)(=O)NC1=O [Example 66]', 'MCL-1 (Homo sapiens (Human))', 'pKi', '> 9.00'),
  ('CC(C)NC(=O)O[C@H]1/C=C/CN(C)C(C)(C)C(=O)NS(=O)(=O)c2ccc3c(c2)N(C[C@@H]2CC[C@H]21)C[C@@]1(CCCc2cc(Cl)ccc21)CO3 [Example 207]', 'MCL-1 (Homo sapiens (Human))', 'pKi', '> 9.00'),
  ('CC1(C)OC/C=C/[C@H](OC(=O)N2CCC(F)(F)C2)[C@@H]2CC[C@H]2CN2C[C@@]3(CCCc4cc(Cl)ccc43)COc3ccc(cc32)S(=O)(=O)NC1=O [Example 166]', 'MCL-1 (Homo sapiens (Human))', 'pKi', '> 9.00'),
  ('CN1C/C=C/[C@H](OC(=O)N2CCN3CCOCC3C2)[C@@H]2CC[C@H]2CN2C[C@@]3(CCCc4cc(Cl)ccc43)COc3ccc(cc32)S(=O)(=O)NC(=O)C1(C)C (stereo in doubt) [Example 208]', 'MCL-1 (Homo sapiens (Human))', 'pKi', '7.00 to 9.00');

## Input What is its pKi for MCL-1 (Homo sapiens (Human))? Entry: CO[C@@H]1/C=C/C[C@H](C)[C@@H](CC(=O)N2CC(F)(F)C2)C(=O)NS(=O)(=O)c2ccc3c(c2)N(C[C@@H]2CC[C@H]21)C[C@@]1(CCCc2cc(Cl)ccc21)CO3 [Example 90]
## Output > 9.00

## Input What is its pKi for MCL-1 (Homo sapiens (Human))? Entry: CO[C@@H]1/C=C\CCC2(CC2)C(=O)NS(=O)(=O)c2ccc3c(c2)N(C[C@@H]2CC[C@H]21)C[C@@]1(CCCc2cc(Cl)ccc21)CO3 [Example 70]
## Output 7.00 to 9.00
